Overview of recorded IC50 for various molecules
- target system: HCV NS3 helicase (Hepatitis C virus genotype 1b, UniProt P26663)
- Construct: full-length NS3 (1-631), purified at Array BioPharma
- Sequence (P26663 1027-1657): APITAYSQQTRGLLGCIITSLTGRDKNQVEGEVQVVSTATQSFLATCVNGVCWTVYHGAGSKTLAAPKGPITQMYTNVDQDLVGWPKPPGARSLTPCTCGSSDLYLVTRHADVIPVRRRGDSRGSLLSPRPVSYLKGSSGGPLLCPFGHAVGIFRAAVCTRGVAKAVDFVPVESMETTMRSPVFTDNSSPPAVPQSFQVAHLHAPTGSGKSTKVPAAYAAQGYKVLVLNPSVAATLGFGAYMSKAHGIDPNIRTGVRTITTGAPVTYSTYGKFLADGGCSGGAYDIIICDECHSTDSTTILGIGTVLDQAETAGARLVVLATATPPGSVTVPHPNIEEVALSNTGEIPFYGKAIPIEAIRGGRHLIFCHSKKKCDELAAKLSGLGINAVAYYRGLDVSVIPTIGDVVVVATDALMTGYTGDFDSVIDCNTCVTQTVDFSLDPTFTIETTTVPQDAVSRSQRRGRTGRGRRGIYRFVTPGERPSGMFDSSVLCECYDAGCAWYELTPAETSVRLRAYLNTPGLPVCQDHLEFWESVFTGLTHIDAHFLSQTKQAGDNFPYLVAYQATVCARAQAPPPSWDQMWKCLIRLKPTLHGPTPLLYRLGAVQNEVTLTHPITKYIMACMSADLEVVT
- procedure details: HCV Helicase Prompt FRET Assay (Example A)
- Type: biochemical
- run conditions: Table 38, compounds made using Scheme 56, Scheme 57 and Scheme 61; read-out: IC50 Activity

- molecule: "CC(C)(C)OC(=O)N(c1cc(Cl)cc2c(Cn3cc(CC(=O)O)c4ccc(Br)cc43)csc12)C1CC1 [Example 774]"
  IC50: "< 10 µM"
- molecule: "CCNc1cc(Cl)cc2c(Cn3cc(CC(=O)O)c4ccc(Br)cc43)csc12 [Example 772]"
  IC50: "> 50 µM"
- molecule: "CCOC(=O)Cc1cn(Cc2csc3c(N(C=O)CC)cc(Cl)cc23)c2cc(Br)ccc12 [Example 771]"
  IC50: "> 50 µM"

Give the measured IC50 for CC(C)(C)OC(=O)N(c1cc(Cl)cc2c(Cn3cc(CC(=O)O)c4ccc(Br)cc43)csc12)C1CC1 [Example 773]
> 50 µM

---

- target system: HCV NS3 helicase (Hepatitis C virus genotype 1b, UniProt P26663)
- Construct: full-length NS3 (1-631), purified at Array BioPharma
- procedure details: HCV Helicase Prompt FRET Assay (Example A)
- Format: biochemical
- run conditions: HCV NS3 helicase; tables do not say whether Example A or Example B assay; read-out: IC50 Activity
readout kind: IC50

For orientation, consider the following solved cases.
- compound: "COc1ccc(OC)c(Oc2cccc(Cn3cc(CC(=O)O)c4ccccc43)c2)c1 [Example 490]"
  IC50: "10 to 50 µM"
- compound: "O=C(Cc1cn(Cc2csc3ccc(Cl)cc23)c2ccccc12)NS(=O)(=O)c1ccccc1 [Example 199]"
  IC50: "10 to 50 µM"
- compound: "O=C(O)Cc1c(C(=O)c2cccc(-c3ccc(Cl)cc3Cl)c2)oc2ccccc12 [Example 242]"
  IC50: "< 10 µM"

Now look at this one.
Give the measured IC50 for CN(c1ccc(F)cc1)c1cccc(Cn2cc(CC(=O)O)c3ccccc32)c1 [Example 522]
< 10 µM

---

- target system: HCV NS3 helicase (Hepatitis C virus genotype 1b)
- Construct: full-length NS3 (1-631), purified at Array BioPharma
- procedure details: HCV Helicase Prompt FRET Assay (Example A)
- Format: biochemical
- run conditions: Table 32, compounds made using Schemes 46-49; read-out: IC50 Activity
pIC50: −log10 of the molar value.
readout kind: pIC50

For orientation, consider the following solved cases.
- molecule: "NC(=O)c1nc(N)sc1-c1ccc2c(CC(=O)O)cn(Cc3csc4ccc(Cl)cc34)c2c1 [Example 654]"
  observed value: "> 5.00"
- molecule: "CC(C)(C)OC(=O)Nc1nnc(-c2ccc3c(CC(=O)O)cn(Cc4csc5ccc(Cl)cc45)c3c2)s1 [Example 659]"
  observed value: "4.30 to 5.00"
- molecule: "CC(C)c1ccc(Cn2c(C(N)=O)c(CC(=O)O)c3ccccc32)cc1"
  observed value: "4.30 to 5.00"

Give the measured pIC50 for Nc1ncc(-c2ccc3c(CC(=O)O)cn(Cc4csc5ccc(Cl)cc45)c3c2)s1
4.30 to 5.00

---

Overview of recorded pIC50 for various molecules
- target system: HCV NS3 helicase (Hepatitis C virus genotype 1b, UniProt P26663)
- Construct: full-length NS3 (1-631), purified at Array BioPharma
- procedure details: HCV Helicase Prompt FRET Assay (Example A)
- Format: biochemical
- run conditions: HCV NS3 helicase; tables do not say whether Example A or Example B assay; read-out: IC50 Activity
pIC50: −log10 of the molar value.

- molecule: "O=C(Cc1cn(Cc2cccc(OCc3ccccc3)c2)c2ccc(OCc3ccccc3)cc12)NS(=O)(=O)C1CC1 [Example 194]"
  pIC50: "> 5.00"

Give the measured pIC50 for CC(C)c1ccc(Cn2c(C(=O)N3CCCC3)c(CC(=O)O)c3cc(Br)ccc32)cc1 [Example 431]
4.30 to 5.00

---

Overview of recorded IC50 for various molecules
- target system: HCV NS3 helicase (Hepatitis C virus genotype 1b, UniProt P26663)
- Construct: full-length NS3 (1-631), purified at Array BioPharma
- procedure details: HCV Helicase Prompt FRET Assay (Example A)
- Type: biochemical
- run conditions: Table 34, compounds made using Schemes 51-52; read-out: IC50 Activity

- molecule: "Cc1cc([N+](=O)[O-])ccc1-n1cc(C(NC(=O)c2ccccc2)C(=O)O)c2ccccc21 (stereo not shown)"
  target system: "HCV NS3 helicase (Hepatitis C virus genotype 1b, UniProt P26663)"
  IC50: "10 to 50 µM"
- molecule: "Nc1cc(N)cc(-c2ccc3c(CC(=O)NOCc4ccccc4)cn(Cc4csc5ccc(Cl)cc45)c3c2)c1"
  target system: "HCV NS3 helicase (Hepatitis C virus genotype 1b, UniProt P26663)"
  IC50: "< 10 µM"
- molecule: "COC(=O)C(=O)c1cn(Cc2csc3ccc(Cl)cc23)c2cc(Br)ccc12"
  target system: "HCV NS3 helicase (Hepatitis C virus genotype 1b, UniProt P26663)"
  IC50: "> 50 µM"
- molecule: "Nc1cc(N)cc(-c2ccc3c(CC(=O)O)cn(Cc4ccccc4)c3c2)c1"
  target system: "HCV NS3 helicase (Hepatitis C virus genotype 1b, UniProt P26663)"
  IC50: "10 to 50 µM"
- molecule: "CC(=O)OC1CCCN(c2ccc3ccn(Cc4csc5ccc(Cl)cc45)c3c2)C1 (stereo not shown)"
  target system: "HCV NS3 helicase (Hepatitis C virus genotype 1b, UniProt P26663)"
  IC50: "10 to 50 µM"
- molecule: "Cc1cc([N+](=O)[O-])ccc1-n1cc(C(NC(=O)C2CCNCC2)C(=O)O)c2ccccc21 (stereo not shown)"
  target system: "HCV NS3 helicase (Hepatitis C virus genotype 1b, UniProt P26663)"
  IC50: "> 50 µM"

Give the measured IC50 for CC(C)(C)ONC(=O)Cc1cn(Cc2csc3ccc(Cl)cc23)c2cc(-c3cc(N)cc(N)c3)ccc12
10 to 50 µM

Give the measured IC50 for OCCc1cn(Cc2csc3ccc(Cl)cc23)c2cc(Br)ccc12
> 50 µM

Give the measured IC50 for CC(C)c1ccc(CC(C(=O)O)c2cn(Cc3ccc(C(C)C)cc3)c3ccc(Br)cc23)cc1 (stereo not shown)
< 10 µM

Give the measured IC50 for Cc1cc([N+](=O)[O-])ccc1-n1cc(C(NC(=O)C2CCN(C(=O)OC(C)(C)C)CC2)C(=O)O)c2ccccc21 (stereo not shown)
10 to 50 µM

---

- target system: HCV NS3 helicase (Hepatitis C virus genotype 1b)
- Construct: full-length NS3 (1-631), purified at Array BioPharma
- procedure details: HCV Helicase Prompt FRET Assay (Example A)
- Format: biochemical
- run conditions: Table 30, compounds made using Scheme 37; read-out: IC50 Activity
pIC50: −log10 of the molar value.
readout kind: pIC50

Give the measured pIC50 for CCOC(=O)Cc1cn(Cc2cccc(N(C)c3ccccc3Cl)c2)c2cc(-c3cccc(O)c3)ccc12 [Compound 624]
4.30 to 5.00

---

- target system: HCV NS3 helicase (Hepatitis C virus genotype 1b)
- Construct: full-length NS3 (1-631), purified at Array BioPharma
- procedure details: HCV Helicase Prompt FRET Assay (Example A)
- Format: biochemical
- run conditions: HCV NS3 helicase; tables do not say whether Example A or Example B assay; read-out: IC50 Activity
Overview of recorded IC50 for various compounds

- compound: "O=C(O)Cc1c(Cc2cccc(-c3cccc(Cl)c3Cl)c2)[nH]c2ccccc12"
  IC50: "< 10 µM"
- compound: "Cc1ccc(-c2ccc(C(=O)c3[nH]c4ccccc4c3CC(=O)O)cc2)cc1"
  IC50: "10 to 50 µM"
- compound: "Cc1cc(C)cc(-c2cccc(C(=O)c3[nH]c4ccccc4c3CC(=O)O)c2)c1"
  IC50: "< 10 µM"
- compound: "O=C(O)Cc1c(Cc2ccc(-c3ccccc3)cc2)n(CC2CC2)c2ccccc12"
  IC50: "< 10 µM"
- compound: "O=C(O)Cc1c(C(=O)c2cccc(-c3ccnc(Cl)c3)c2)[nH]c2ccccc12"
  IC50: "10 to 50 µM"
- compound: "Cn1c(Cc2ccc(-c3ccccc3)cc2)c(CC(=O)O)c2ccccc21"
  IC50: "10 to 50 µM"

Give the measured IC50 for O=C(Cc1cn(Cc2cccc(OCc3ccccc3)c2)c2ccc(Br)cc12)NCC1CC1
10 to 50 µM

Give the measured IC50 for NC(=O)c1cccc(-c2ccc(C(=O)c3[nH]c4ccccc4c3CC(=O)O)cc2)c1
10 to 50 µM

Give the measured IC50 for Cc1cc([N+](=O)[O-])ccc1-n1cc(C(O)(C(=O)N2CCCC2)C(F)(F)F)c2cc(Br)ccc21 (stereo not drawn)
> 50 µM

Give the measured IC50 for N#Cc1ccnc(-n2cc(CP(=O)(O)O)c3cc(Br)ccc32)c1
10 to 50 µM

Give the measured IC50 for O=C(O)Cc1cn(Cc2ccccc2C(F)(F)F)c2ccc(Br)cc12
10 to 50 µM

Give the measured IC50 for CC(C)c1ccc(Cn2c(C(=O)NC3CCNCC3)c(CC(=O)O)c3cc(Br)ccc32)cc1
10 to 50 µM

Give the measured IC50 for O=C(O)Cc1c(C(=O)c2ccc(-c3ccc(Cl)cc3Cl)cc2)[nH]c2ccccc12
< 10 µM

Give the measured IC50 for CSc1ccccc1-c1ccc(C(=O)c2[nH]c3ccccc3c2CC(=O)O)cc1
10 to 50 µM

Origin of the recorded values: patent US20090047246A1
